biological target: T1, rhNav1.7α + β1-β2-β3 (rhesus monkey); assay: binding FACS, CHO FlpIn cells
T1 construct: also called rhNav1.7-beta1-beta2-beta3; rhesus Nav1.7α
experimental.endpoint: Bmax
A complete answer gives the number followed by the unit.

Ask | Which measured Bmax value corresponds to F010301878 (VHH, G54E vs F0103464B09 (Kabat)) VHH: EVQLVESGGGLVQPGGSLRLSCATTSRAFIRDVFTGWYRRVPGKERELVARIYNEGNTNYADFAKGRFSISRDNAKKMVTLRMSNLKPEDTGVYYCLFSGTINTGREYRSGDYWGQGTLVTVSS ?
Reply | 83%

More entries:
Ask | Which measured Bmax value corresponds to F010301885 (VHH, N53E vs F0103464B09 (Kabat)) VHH: EVQLVESGGGLVQPGGSLRLSCATTSRAFIRDVFTGWYRRVPGKERELVARIYEGGNTNYADFAKGRFSISRDNAKKMVTLRMSNLKPEDTGVYYCLFSGTINTGREYRSGDYWGQGTLVTVSS ?
Reply | 100%
